target: CDK2/CycA2 (Homo sapiens, UniProt P24941); assay: In vitro kinase Caliper assay CDK2/CycA2; type: biochemical; conditions: enzyme 10 nM, 28° C. 30 min, read-out: CDK2 cyclinA2 activity assay: IC50
pIC50: −log10 of the molar value.
recorded.metric: pIC50

Worked examples, 2 compounds total:
INSERT INTO measurements (compound, assayed_target, value_observed) VALUES
  ('CC(C)NC(=O)O[C@@H]1CC[C@H](c2cc(Nc3ccc4c(c3)CCNS4(=O)=O)n[nH]2)C1 [Example 2]', 'CDK2/CycA2 (Homo sapiens, UniProt P24941)', '> 7.30'),
  ('CC(C)NC(=O)O[C@@H]1CC[C@H](c2cc(Nc3ccc4c(c3)CNS4(=O)=O)n[nH]2)C1 [Example 3]', 'CDK2/CycA2 (Homo sapiens, UniProt P24941)', '> 7.30');

Pending compound:
### Prompt For the compound CC(C)NC(=O)O[C@@H]1CC[C@H](c2cc(Nc3ccc4c(=O)[nH]n(C)c4c3)n[nH]2)C1 [Example 1] , give its measured pIC50 value.
### Response > 7.30

====

target: GSK3β (Homo sapiens, UniProt P49841); assay: In vitro kinase TR-FRET assay GSK3β; format: biochemical; details: enzyme 0.6 nM, ATP 7.6 μM
Sequence (P49841 whole entry, species assumed): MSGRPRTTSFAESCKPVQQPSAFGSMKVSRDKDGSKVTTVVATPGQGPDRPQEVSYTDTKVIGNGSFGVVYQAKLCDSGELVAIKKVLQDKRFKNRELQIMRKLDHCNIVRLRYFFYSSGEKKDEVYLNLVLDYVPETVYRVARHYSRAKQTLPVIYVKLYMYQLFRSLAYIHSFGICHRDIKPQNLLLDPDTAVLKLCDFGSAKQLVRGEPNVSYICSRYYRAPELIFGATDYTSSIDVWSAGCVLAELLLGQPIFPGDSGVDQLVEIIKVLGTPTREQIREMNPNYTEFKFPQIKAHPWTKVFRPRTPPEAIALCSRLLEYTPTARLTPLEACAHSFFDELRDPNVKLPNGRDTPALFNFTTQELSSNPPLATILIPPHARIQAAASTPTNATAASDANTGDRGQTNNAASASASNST
pIC50: −log10 of the molar value.
recorded.metric: pIC50

INSERT INTO results (compound, value_observed) VALUES
  ('CC(C)NC(=O)O[C@@H]1CC[C@H](c2cc(Nc3ccc(F)c4c3CN(C)S4(=O)=O)n[nH]2)C1 [Example 67]', '< 6.00'),
  ('CC(C)NC(=O)O[C@@H]1CC[C@H](c2cc(Nc3ccc4c(c3)CCCS4(=O)=O)n[nH]2)C1 [Example 26]', '6.30 to 7.30'),
  ('CC(C)NC(=O)O[C@@H]1CC[C@H](c2cc(Nc3ccc4c(c3)N(C)CNS4(=O)=O)n[nH]2)C1 [Example 12]', '6.30 to 7.30'),
  ('CC(C)NC(=O)O[C@@H]1CC[C@H](c2cc(Nc3ccc(F)c4c3CNS4(=O)=O)[nH]n2)C1 [Example 66]', '6.30 to 7.30'),
  ('CC(C)NC(=O)O[C@@H]1CC[C@H](c2cc(Nc3cccc4c3CS(=O)(=O)CC4)n[nH]2)C1 [Example 63]', '< 6.00'),
  ('CC(C)NC(=O)O[C@@H]1CC[C@H](c2cc(Nc3cccc4c3CN(C)S4(=O)=O)n[nH]2)C1 [Example 47]', '< 6.00'),
  ('CC(C)NC(=O)O[C@@H]1CC[C@H](c2cc(Nc3ccc4c(c3)S(=O)(=O)NC4)n[nH]2)C1 [Example 17]', '6.30 to 7.30'),
  ('CC(C)NC(=O)O[C@@H]1CC[C@H](c2cc(Nc3ccc4c(c3)CNC4=O)n[nH]2)C1 [Example 8]', '6.00 to 6.30');

### Prompt Please supply the value of reported pIC50 for the item CC(C)NC(=O)O[C@@H]1CC[C@H](c2cc(Nc3ccc(Cl)c4c3CCS4(=O)=O)n[nH]2)C1 [Example 64]
### Response 6.30 to 7.30

### Prompt Item CC(C)NC(=O)O[C@H]1CC[C@@H](c2cc(Nc3ccc4c(c3)CS(=O)(=O)C4)n[nH]2)CC1 [Example 33] : provide pIC50
### Response < 6.00

### Prompt Report pIC50, nothing else, for this compound: CC(C)NC(=O)O[C@@H]1CC[C@H](c2cc(Nc3cccc4c3CCNS4(=O)=O)n[nH]2)C1 [Example 61]
### Response 6.00 to 6.30

### Prompt Determine its reported pIC50: CC(C)NC(=O)O[C@@H]1CC[C@H](c2cc(Nc3ccc4c(c3)CS(=O)(=O)N4C)n[nH]2)C1 [Example 42]
### Response 6.00 to 6.30

The measurements presented in this section are drawn from patent US20240246950A1.
